Biological target: LXRβ ligand-binding domain (Homo sapiens, UniProt P55055, DUP175-175)
Construct: amino acids 156-461; NP009052; made in house; host or cells: E. coli
Sequence (P55055 with tags, fused parts or gaps DUP175-175 limits assumed): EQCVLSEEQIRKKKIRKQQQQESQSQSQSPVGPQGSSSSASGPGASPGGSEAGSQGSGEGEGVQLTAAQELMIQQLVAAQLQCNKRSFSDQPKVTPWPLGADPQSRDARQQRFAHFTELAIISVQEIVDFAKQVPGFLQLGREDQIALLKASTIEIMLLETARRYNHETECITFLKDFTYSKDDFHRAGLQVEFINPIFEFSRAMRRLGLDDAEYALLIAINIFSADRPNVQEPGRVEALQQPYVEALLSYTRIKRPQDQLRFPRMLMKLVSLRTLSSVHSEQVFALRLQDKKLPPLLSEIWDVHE
Test: TR-FRETβ activity assay (NCoA3 coactivator peptide recruitment)
Type: biochemical
Settings: TR-FRET, 1 μM 24(S)-25-epoxycholesterol prestimulation; read-out: FRETβ (EC50 range)
pEC50: −log10 of the molar value.
quantity: pEC50

>  <compound>
Cc1ccc(S(=O)(=O)n2c(-c3cccc(N4CC(C(=O)O)C4)c3)c(-c3ccsc3C#N)c3sccc32)cc1

>  <system-tested>
LXRβ ligand-binding domain (Homo sapiens, UniProt P55055, DUP175-175)

>  <readout-value>
5.00 to 6.00

$$$$
>  <compound>
COc1ccc(S(=O)(=O)n2c(-c3ccccc3)c(-c3ccc4ncccc4c3C#N)c3ccccc32)cc1

>  <system-tested>
LXRβ ligand-binding domain (Homo sapiens, UniProt P55055, DUP175-175)

>  <readout-value>
5.00 to 6.00

$$$$
>  <compound>
CS(=O)(=O)NC(=O)C1CC1c1cccc(-c2c(-c3ccsc3C#N)c3ccccc3n2S(=O)(=O)c2ccc(Cl)cc2)c1 (centres unmarked)

>  <system-tested>
LXRβ ligand-binding domain (Homo sapiens, UniProt P55055, DUP175-175)

>  <readout-value>
6.00 to 7.00

$$$$
>  <compound>
N#Cc1sccc1-c1c(-c2cccc(-c3ccc(C(=O)O)cc3Cl)c2)n(S(=O)(=O)c2ccc(C(F)F)nc2)c2ccc(F)cc12

>  <system-tested>
LXRβ ligand-binding domain (Homo sapiens, UniProt P55055, DUP175-175)

>  <readout-value>
> 7.00

$$$$
>  <compound>
N#Cc1scnc1-c1c(-c2cccc(-c3cc(F)c(C(=O)O)cc3Cl)c2)n(S(=O)(=O)c2ccc(C(F)F)cc2)c2ccc(F)cc12

>  <system-tested>
LXRβ ligand-binding domain (Homo sapiens, UniProt P55055, DUP175-175)

>  <readout-value>
> 7.00

$$$$

The reported value for Cc1ccc(S(=O)(=O)n2c(-c3cccc(-c4cc(F)c(CO)c(S(C)(=O)=O)c4)c3)c(-c3ccsc3C#N)c3cc(F)ccc32)cc1 in terms of pEC50 is > 7.00

The reported value for O=S(=O)(c1ccc(Cl)cc1)n1c(-c2cccs2)c(-c2ccsc2Cl)c2ccccc21 in terms of pEC50 is 6.00 to 7.00

* * *

Experiment: Short term HFD mouse model: plasma and liver exposure
Format: in vivo, mice (C57BL/6J)
Details: HFD mice, three oral doses of 20 mg/kg, 4 h after last dose

>  <smiles-notation>
N#Cc1cccc(C#N)c1-c1c(-c2cccc(-c3ccc(C(=O)O)cc3Cl)c2)n(S(=O)(=O)c2ccc(C(F)F)cc2)c2ccc(F)cc12

>  <liver exposure 4 h>
C (1 μM to ≤10 μM)

$$$$
>  <smiles-notation>
Cc1ccc(S(=O)(=O)n2c(-c3cccc(-c4ccc(C(=O)O)cc4Cl)c3)c(-c3ccsc3C#N)c3cc(F)ccc32)cc1

>  <liver exposure 4 h>
C (1 μM to ≤10 μM)

$$$$
>  <smiles-notation>
Cc1ccc(S(=O)(=O)n2c(-c3cccc(-c4ccc(C(=O)O)cc4)c3)c(-c3ccsc3C#N)c3cc(F)ccc32)cc1

>  <liver exposure 4 h>
C (1 μM to ≤10 μM)

$$$$
